All figures here come from the supplement of paper PMC6965134.

measurementProtocol: TIMS collisional cross section (CCS, N2) of the lipid ion; higher = larger ion cross section
recordedConditions: sample type: Liver; ionization mode: positive; one isomer drawn
recordedEndpoint: TIMS collisional cross section (Å²)

- compound: "CCCCC/C=C\\C/C=C\\CCCCCCCCCC(=O)OC[C@@H](O)COP(=O)(O)OC[C@@H](O)CO [LPG 20:2] (ion (formula + adduct): [C26H49O9P+H] 1+)"
  recordedEndpoint: "TIMS collisional cross section"
  unit: "Å²"
  readoutValue: 230.1
- compound: "CCCCC/C=C\\C/C=C\\CCCCCCCC(=O)O[C@H](COC(=O)CCCCCCC/C=C\\CCCCCCCC)COP(=O)(O)OCCN [PE 18:1_18:2] (ion (formula + adduct): [C41H76NO8P+Na] 1+)"
  recordedEndpoint: "TIMS collisional cross section"
  unit: "Å²"
  readoutValue: 277.2
- compound: "CCCCC/C=C\\C/C=C\\CCCCCCCC(=O)OC[C@H](CO)OC(=O)CCCCCCCCCCCCCCCCCCCCC [DG 18:2_22:0_0:0] (ion (formula + adduct): [C43H80O5+NH4] 1+)"
  recordedEndpoint: "TIMS collisional cross section"
  unit: "Å²"
  readoutValue: 279.2
- compound: "CCCCCC/C=C\\CCCCCCCC(=O)OC[C@@H](COC(=O)CCCCCCCCCCCCC)OC(=O)CCCCCCCCCCCCC [TG 14:0_14:0_16:1] (ion (formula + adduct): [C47H88O6+NH4] 1+)"
  recordedEndpoint: "TIMS collisional cross section"
  unit: "Å²"
  readoutValue: 299.1
- compound: "CCCCC/C=C\\C/C=C\\C/C=C\\CCCCC(=O)O[C@H](COC(=O)CCCCCCC/C=C\\C/C=C\\CCCCC)COP(=O)([O-])OCC[N+](C)(C)C [PC 18:2@_18:3] (ion (formula + adduct): [C44H78NO8P+H] 1+)"
  recordedEndpoint: "TIMS collisional cross section"
  unit: "Å²"
  readoutValue: 284.9

* * *

measurementProtocol: TIMS collisional cross section (CCS, N2) of the lipid ion; higher = larger ion cross section
recordedConditions: sample type: Liver; ionization mode: positive; one isomer drawn
recordedEndpoint: TIMS collisional cross section (Å²)

- molecule: "CCCCC/C=C\\C/C=C\\C/C=C\\C/C=C\\CCCCCC(=O)OC[C@@H](COC(=O)CCCCCCC/C=C\\C/C=C\\CCCCC)OC(=O)CCCCCCCCC/C=C\\C/C=C\\CCCCC [TG 18:2_20:2_22:4] (ion (formula + adduct): [C63H106O6+NH4] 1+)"
  recordedEndpoint: "TIMS collisional cross section"
  unit: "Å²"
  readoutValue: 335.7
- molecule: "CCCCC/C=C\\C/C=C\\C/C=C\\C/C=C\\CCCC(=O)O[C@H](COC(=O)CCCCCCC/C=C\\CCCCCCCC)COC(=O)CCCCCCCCCCC/C=C\\CCCCCCCC [TG 18:1_20:4_22:1] (ion (formula + adduct): [C63H110O6+NH4] 1+)"
  recordedEndpoint: "TIMS collisional cross section"
  unit: "Å²"
  readoutValue: 339.9
- molecule: "CCCCCCC/C=C\\CCCCCCCC(=O)OC[C@@H](COC(=O)CCCCCCCCCCCCCCC)OC(=O)CCCCCCCCCCCCCCC [TG 16:0_16:0_17:1] (ion (formula + adduct): [C52H98O6+NH4] 1+)"
  recordedEndpoint: "TIMS collisional cross section"
  unit: "Å²"
  readoutValue: 315.2
- molecule: "CC/C=C\\C/C=C\\C/C=C\\C/C=C\\CCCCCCC(=O)O[C@H](COCCCCCCCCCC/C=C\\CCCCCCCC)COP(=O)([O-])OCC[N+](C)(C)C [PC O- 20:1@_20:4] (ion (formula + adduct): [C48H88NO7P+H] 1+)"
  recordedEndpoint: "TIMS collisional cross section"
  unit: "Å²"
  readoutValue: 299.9
